assay_notes: xn = mol fraction of the nth substance listed, in the solute-free solvent
condition_summary: 313.15 K; x2 = 0.4
experimental_readout: solubility (g/100 g solution)

>  <compound>
Cc1ncc(CO)c(CO)c1O.Cl + O + CCCO

>  <solubility (g/100 g solution)>
4.99

$$$$

[1] Cc1ncc(CO)c(CO)c1O.Cl + O + CC#N
[2] CCOc1ccccc1C(N)=O + CCO + CC#N
query: Look at 1 and 2 . Which one has the lower recorded solubility (g/100 g solution) number? Bench note: the answer is the label of the chosen record.
result: 1

[P] CCOc1ccccc1C(N)=O + CO + CC#N
[Q] Cc1ncc(CO)c(CO)c1O.Cl + O + CC(C)O
query: Of P and Q , whose reported solubility (g/100 g solution) is the larger number? Bench note: the answer is the label of the chosen record.
result: P
(P: 18.1, Q: 3.53)

###

assay_notes: xn = mol fraction of the nth substance listed, in the solute-free solvent
condition_summary: 313.15 K; x2 = 0.5454
experimental_readout: solubility (g/100 g solution)

>  <compound>
Cc1nc2n(c(=O)c1CCN1CCC(c3noc4cc(F)ccc34)CC1)CCCC2 + CC(C)O + O

>  <readout_value>
14.6

$$$$
>  <compound>
c1ccc(-c2ccc(C(c3ccccc3)n3ccnc3)cc2)cc1 (centres undefined) + CCCO + O

>  <readout_value>
5.09

$$$$
>  <compound>
c1ccc(-c2ccc(C(c3ccccc3)n3ccnc3)cc2)cc1 (centres undefined) + CC(C)O + O

>  <readout_value>
4.64

$$$$
>  <compound>
Nc1nc2ccc(OC(F)(F)F)cc2s1 + CCCO + O

>  <readout_value>
66.6

$$$$

###

assay_notes: xn = mol fraction of the nth substance listed, in the solute-free solvent
condition_summary: 278.15 K; x2 = 0.2
experimental_readout: solubility (g/100 g solution)

Some molecules with known solubility (g/100 g solution) results, for comparison:
>  <molecule>
Cc1c(Br)c(=O)n(C2CCCC2)c2nc(Cl)ncc12 + CC1=CC(=O)CC(C)(C)C1 + CC(C)O

>  <readout_value>
0.167

$$$$
>  <molecule>
CCOC(=O)OC1=C(c2cc(C)ccc2C)C(=O)NC12CCC(OC)CC2 (configuration not stated) + CCO + O

>  <readout_value>
0.0705

$$$$
>  <molecule>
CCOC(=O)OC1=C(c2cc(C)ccc2C)C(=O)NC12CCC(OC)CC2 (configuration not stated) + CC(C)O + O

>  <readout_value>
0.638

$$$$
>  <molecule>
CCOC(=O)OC1=C(c2cc(C)ccc2C)C(=O)NC12CCC(OC)CC2 (configuration not stated) + CC(C)=O + O

>  <readout_value>
0.475

$$$$
>  <molecule>
CCOC(=O)OC1=C(c2cc(C)ccc2C)C(=O)NC12CCC(OC)CC2 (configuration not stated) + CO + O

>  <readout_value>
0.00416

$$$$

[I] Cc1c(Br)c(=O)n(C2CCCC2)c2nc(Cl)ncc12 + CCOC(C)=O + CCO
[II] Cc1c(Br)c(=O)n(C2CCCC2)c2nc(Cl)ncc12 + C1CCOC1 + CCO
query: Of I and II , whose reported solubility (g/100 g solution) is the larger number? Bench note: the answer is the label of the chosen record.
result: II

###

assay_notes: xn = mol fraction of the nth substance listed, in the solute-free solvent
condition_summary: 283.15 K; x2 = 0.3
experimental_readout: solubility (g/100 g solution)

[I] Cc1c(Br)c(=O)n(C2CCCC2)c2nc(Cl)ncc12 + C1CCOC1 + CCO
[II] Cc1c(Br)c(=O)n(C2CCCC2)c2nc(Cl)ncc12 + CCOC(C)=O + CCO
query: Look at I and II . Which one has the lower recorded solubility (g/100 g solution) number? Bench note: the answer is the label of the chosen record.
result: II
(II: 0.353, I: 1.8)

###

assay_notes: xn = mol fraction of the nth substance listed, in the solute-free solvent
condition_summary: 323.15 K; x2 = 0.9
experimental_readout: solubility (g/100 g solution)

Some compounds with known solubility (g/100 g solution) results, for comparison:
>  <compound>
Cl.N=C(N)NC(=N)N1CCOCC1 + O + CC(C)O

>  <solubility (g/100 g solution)>
55.9

$$$$
>  <compound>
Cc1c(Br)c(=O)n(C2CCCC2)c2nc(Cl)ncc12 + CC1=CC(=O)CC(C)(C)C1 + CC(C)O

>  <solubility (g/100 g solution)>
5.82

$$$$

[P] NC(=O)NC1NC(=O)NC1=O (stereo not given) + O + CO
[Q] CCOc1ccccc1C(N)=O + CO + CC#N
[R] CCOc1ccccc1C(N)=O + CC#N + CCO
[S] O=C(NC(C(=O)O)c1ccccc1)OCc1ccccc1 (stereo not given) + CCO + O
query: # rank_down: sort by solubility (g/100 g solution), max first Kindly provide the labels arranged according to the requested ordering.
result: S, Q, R, P

[I] CCOc1ccccc1C(N)=O + CC#N + CC(C)O
[II] Cc1c(Br)c(=O)n(C2CCCC2)c2nc(Cl)ncc12 + CCOC(C)=O + CCO
query: Of I and II , whose reported solubility (g/100 g solution) is the larger number? Bench note: the answer is the label of the chosen record.
result: I
(I: 16.1, II: 1.9)

###

assay_notes: xn = mol fraction of the nth substance listed, in the solute-free solvent
condition_summary: 293.15 K; x2 = 0.4
experimental_readout: solubility (g/100 g solution)

>  <compound>
CCOC(=O)OC1=C(c2cc(C)ccc2C)C(=O)NC12CCC(OC)CC2 (configuration not stated) + CC(C)O + O

>  <solubility (g/100 g solution)>
5

$$$$
>  <compound>
COC(=O)C(N)CS.Cl (configuration not stated) + CCO + ClCCl

>  <solubility (g/100 g solution)>
4.26

$$$$
>  <compound>
Cc1c(Br)c(=O)n(C2CCCC2)c2nc(Cl)ncc12 + C1CCOC1 + CCO

>  <solubility (g/100 g solution)>
3.26

$$$$
>  <compound>
CCOC(=O)OC1=C(c2cc(C)ccc2C)C(=O)NC12CCC(OC)CC2 (configuration not stated) + CC(C)=O + O

>  <solubility (g/100 g solution)>
6.92

$$$$

[A] O=C(NC(C(=O)O)c1ccccc1)OCc1ccccc1 (configuration not stated) + CCO + O
[B] Cc1c(Br)c(=O)n(C2CCCC2)c2nc(Cl)ncc12 + CCOC(C)=O + CCO
[C] Cc1ncc(CO)c(CO)c1O.Cl + O + CC#N
query: Put the compounds in ascending order of solubility (g/100 g solution). Kindly provide the labels arranged according to the requested ordering.
result: B, C, A

###

assay_notes: xn = mol fraction of the nth substance listed, in the solute-free solvent
condition_summary: 308.15 K; x2 = 0.3
experimental_readout: solubility (g/100 g solution)

>  <compound>
CCOc1ccccc1C(N)=O + CC#N + CC(C)O

>  <solubility (g/100 g solution)>
9.11

$$$$

[I] Cc1c(Br)c(=O)n(C2CCCC2)c2nc(Cl)ncc12 + C1CCOC1 + CCO
[II] CCOc1ccccc1C(N)=O + CO + CC#N
[III] Cc1ncc(CO)c(CO)c1O.Cl + O + CC(C)O
query: Put the compounds in ascending order of solubility (g/100 g solution). Kindly provide the labels arranged according to the requested ordering.
result: III, I, II

###

assay_notes: xn = mol fraction of the nth substance listed, in the solute-free solvent
condition_summary: 288.15 K; x2 = 0.2
experimental_readout: solubility (g/100 g solution)
Write the value as a bare number.

Some compounds with known solubility (g/100 g solution) results, for comparison:
>  <compound>
Cc1c(Br)c(=O)n(C2CCCC2)c2nc(Cl)ncc12 + CC1=CC(=O)CC(C)(C)C1 + CC(C)O

>  <readout_value>
0.327

$$$$
>  <compound>
COC(=O)C(N)CS.Cl (stereo not given) + CCO + ClCCl

>  <readout_value>
2.21

$$$$
>  <compound>
CCOC(=O)OC1=C(c2cc(C)ccc2C)C(=O)NC12CCC(OC)CC2 (stereo not given) + CCO + O

>  <readout_value>
0.226

$$$$
>  <compound>
CCOC(=O)OC1=C(c2cc(C)ccc2C)C(=O)NC12CCC(OC)CC2 (stereo not given) + CC(C)=O + O

>  <readout_value>
0.839

$$$$

query: What does the record list as solubility (g/100 g solution) for CCOC(=O)OC1=C(c2cc(C)ccc2C)C(=O)NC12CCC(OC)CC2 (stereo not given) + CO + O ?
result: 0.0104

###

assay_notes: xn = mol fraction of the nth substance listed, in the solute-free solvent
condition_summary: 298.15 K; x2 = 0.3
experimental_readout: solubility (g/100 g solution)

>  <compound>
CCOc1ccccc1C(N)=O + CC#N + CC(C)O

>  <readout_value>
6.05

$$$$
>  <compound>
CCOc1ccccc1C(N)=O + CCO + CC#N

>  <readout_value>
7.15

$$$$

[P] COC(=O)C(N)CS.Cl (stereo not given) + CCO + ClCCl
[Q] CCOc1ccccc1C(N)=O + CO + CC#N
[R] Cc1ncc(CO)c(CO)c1O.Cl + O + CC#N
query: Put the compounds in ascending order of solubility (g/100 g solution). Kindly provide the labels arranged according to the requested ordering.
result: R, P, Q
(R: 1.16, P: 4.09, Q: 7.81)
